Reported MBC values for the following compounds.
- Test system: Bacillus subtilis ATCC 6633
- EXPERIMENT NOTES: Broth microdilution MIC/MBC
- TEST PARAMETERS: ATCC6633
# output: bare number, implied unit µg/mL

Looking up O=C(N/N=C/c1cc(Cl)cc(I)c1O)c1cccc(I)c1 [Compound 20] , I found its MBC recorded as 31.2

---
Looking up O=C(N/N=C/c1cccc([N+](=O)[O-])c1O)c1cccc(I)c1 [Compound 15] , I found its MBC recorded as 500

Looking up O=C(N/N=C/c1cc(I)cc(I)c1O)c1ccccc1I [Compound 14] , I found its MBC recorded as 500

Looking up O=C1CN(/N=C/c2ccc([N+](=O)[O-])o2)C(=O)N1 [NIT, nitrofurantoin, reference compound] , I found its MBC recorded as 3.91

Looking up O=C(N/N=C/c1cc(Cl)cc(I)c1O)c1ccc(I)cc1 [Compound 27] , I found its MBC recorded as 500

Looking up O=C(N/N=C/c1cc(Br)cc(Br)c1O)c1cccc(I)c1 [Compound 21] , I found its MBC recorded as 31.2

Looking up O=C(N/N=C/c1cc(Cl)cc(Cl)c1O)c1cccc(I)c1 [Compound 17] , I found its MBC recorded as 15.6

====

Reported cell proliferation values for the following compounds.
- Test system: HeLa cell line
- EXPERIMENT NOTES: MTT cytotoxicity assay
- Type: cell-based
- TEST PARAMETERS: 48h, 100 µM, Repeat No 1
# output: bare number, implied unit %

Recorded cell proliferation, per entry:
Looking up O=C(N/N=C/c1cc(Br)cc(Br)c1O)c1cccc(I)c1 [Compound 21] , I found its cell proliferation recorded as 88

Looking up O=C(N/N=C/c1cc(Cl)cc(I)c1O)c1ccc(I)cc1 [Compound 27] , I found its cell proliferation recorded as 63

Looking up O=C(N/N=C/c1cc(I)cc(I)c1O)c1ccccc1I [Compound 14] , I found its cell proliferation recorded as 81

// next entry
Looking up O=C(N/N=C/c1cc(Cl)cc(I)c1O)c1cccc(I)c1 [Compound 20] , I found its cell proliferation recorded as 93

====

Reported cell proliferation values for the following compounds.
- Test system: T47D cell line
- EXPERIMENT NOTES: MTT cytotoxicity assay
- Format: cell-based
- TEST PARAMETERS: 24h, 100 µM, Repeat No 1
# output: bare number, implied unit %

Recorded cell proliferation, per entry:
Looking up O=C(N/N=C/c1cc(Cl)cc(I)c1O)c1ccc(I)cc1 [Compound 27] , I found its cell proliferation recorded as 86

Looking up O=C(N/N=C/c1cc(Cl)cc(I)c1O)c1cccc(I)c1 [Compound 20] , I found its cell proliferation recorded as 87

Looking up O=C(N/N=C/c1cc(I)cc(I)c1O)c1ccccc1I [Compound 14] , I found its cell proliferation recorded as 79

// next entry
Looking up O=C(N/N=C/c1cc(Br)cc(Br)c1O)c1cccc(I)c1 [Compound 21] , I found its cell proliferation recorded as 73

====

- System: HeLa cell line
- EXPERIMENT NOTES: MTT cytotoxicity assay
- Format: cell-based
- TEST PARAMETERS: 48h, 100 µM, Repeat No 2
MEASURE: cell proliferation (%)
# output: bare number, implied unit %

Recorded cell proliferation, per entry:
Looking up `O=C(N/N=C/c1cc(Cl)cc(I)c1O)c1ccc(I)cc1` , I found its cell proliferation recorded as 57

Looking up `O=C(N/N=C/c1cc(I)cc(I)c1O)c1ccccc1I` , I found its cell proliferation recorded as 93

Looking up `O=C(N/N=C/c1cc(Cl)cc(I)c1O)c1cccc(I)c1` , I found its cell proliferation recorded as 94

// next entry
Looking up `O=C(N/N=C/c1cc(Br)cc(Br)c1O)c1cccc(I)c1` , I found its cell proliferation recorded as 92
